# Experimental Target: dopamine transporter (DAT) (Rattus norvegicus, UniProt P23977)
# Sequence (P23977 whole entry): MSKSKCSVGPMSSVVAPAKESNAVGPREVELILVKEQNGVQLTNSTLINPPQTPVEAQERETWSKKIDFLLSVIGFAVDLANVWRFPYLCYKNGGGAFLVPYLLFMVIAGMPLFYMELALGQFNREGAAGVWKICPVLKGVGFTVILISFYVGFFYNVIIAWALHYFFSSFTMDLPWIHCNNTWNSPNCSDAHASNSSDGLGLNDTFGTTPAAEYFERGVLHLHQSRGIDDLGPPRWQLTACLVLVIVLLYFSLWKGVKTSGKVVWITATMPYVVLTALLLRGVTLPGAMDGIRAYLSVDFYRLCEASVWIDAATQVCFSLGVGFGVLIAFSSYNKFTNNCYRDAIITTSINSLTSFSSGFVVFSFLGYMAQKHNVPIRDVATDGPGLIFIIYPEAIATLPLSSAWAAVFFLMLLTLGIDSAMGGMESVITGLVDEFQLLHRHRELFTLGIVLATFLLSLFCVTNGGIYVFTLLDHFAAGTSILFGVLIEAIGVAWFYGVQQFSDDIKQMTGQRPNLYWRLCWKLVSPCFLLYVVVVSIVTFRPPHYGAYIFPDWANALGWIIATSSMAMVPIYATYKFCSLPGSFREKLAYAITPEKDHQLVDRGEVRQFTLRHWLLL
# Test Description: Dopamine reuptake ([^3H]dopamine uptake) inhibition in rat brain synaptosomes
# Test Parameters: DAT Uptake IC50, [3H]DA uptake inhibition; mean ± S.D., n = 3
Endpoint Name: pIC50
// scale note: pIC50 = -log10(conc_M); give the bare number

Inquiry: Param request: pIC50 | system dopamine transporter (DAT) (Rattus norvegicus, UniProt P23977) | item CNc1ncc(-c2nc(NCC(c3ccccc3)c3ccccc3)c3ccccc3n2)cn1 [compound 41]
Reply text: 7.96

Inquiry: Param request: pIC50 | system dopamine transporter (DAT) (Rattus norvegicus, UniProt P23977) | item CN(C)c1ncc(-c2nc(NCC(O)(c3ccccc3)c3ccccc3)c3ccccc3n2)cn1 [compound 80]
Reply text: 7.89

Inquiry: Param request: pIC50 | system dopamine transporter (DAT) (Rattus norvegicus, UniProt P23977) | item CSc1ncc(-c2nc(NCC(c3ccccc3)c3ccccc3)c3ccccc3n2)cn1 [compound 30]
Reply text: 8.05

Inquiry: Param request: pIC50 | system dopamine transporter (DAT) (Rattus norvegicus, UniProt P23977) | item c1ccc(C(CNc2nc(-c3cnc4nccn4c3)nc3ccccc23)C2CCCCC2)cc1 (stereo not shown) [compound 102]
Reply text: 8.22

###

Would you mind telling me the reported melting point of each entry?
Your answer should be a plain number; it is taken to be in °C.

Inquiry: State its melting point: COc1ccc2nc(-c3cnc(N(C)C)nc3)nc(NCC(c3ccccc3)c3ccccc3)c2c1 [compound 60]
Reply text: 198

Inquiry: State its melting point: CCOC(=O)c1cn2cc(-c3nc(NCC(c4ccccc4)c4ccccc4)c4ccccc4n3)ccc2n1 [compound 113]
Reply text: 204

###

# Experimental Target: dopamine transporter (DAT) (Rattus norvegicus, UniProt P23977)
# Test Description: Dopamine transporter-mediated [^3H]MPP^+ release, shift of D-amphetamine-induced release, rat caudate synaptosomes
# Format: biochemical
# Parameters: Freshly removed caudate was homogenized in 10% ice-cold sucrose; from tissue; host or cells: rat caudate synaptosomes
# Test Parameters: [3H]MPP+ release; Apparent Kc = [Blocker]/((EC50-2/EC50-1) − 1); negative when shifted EC50 is less than control
Entries whose Apparent Kc is below 400 nM take Satisfied; entries at or above 400 nM take Not satisfied.

Inquiry: is_below(Apparent Kc, 400 nM) for c1ccc(C(CNc2nc(-c3cnc4nccn4c3)nc3ccccc23)c2ccncc2)cc1 (stereo not drawn) [compound 110] ?
Reply text: Not satisfied

Inquiry: is_below(Apparent Kc, 400 nM) for CN(C)c1ccc(-c2nc(NCC(c3ccccc3)c3ccccc3)c3ccccc3n2)cc1 [SRI-29786] ?
Reply text: Not satisfied

Inquiry: is_below(Apparent Kc, 400 nM) for c1ccc(C(CNc2nc(-c3ccc4nccn4c3)nc3ccccc23)c2ccc[nH]2)cc1 (stereo not drawn) [compound 117] ?
Reply text: Not satisfied

Inquiry: is_below(Apparent Kc, 400 nM) for c1ccc(C(CNc2nc(-c3cnc4nccn4c3)nc3ccccc23)C2CCCCC2)cc1 (stereo not drawn) [compound 102] ?
Reply text: Not satisfied

Inquiry: is_below(Apparent Kc, 400 nM) for Cc1cc2nccn2cc1-c1nc(NCC(O)(c2ccccc2)c2ccccc2)c2ccccc2n1 [compound 152] ?
Reply text: Satisfied

Inquiry: is_below(Apparent Kc, 400 nM) for c1ccc(C(CNc2nc(-c3ccc4nccn4c3)nc3ccccc23)c2ccccc2)cc1 [compound 55] ?
Reply text: Satisfied

Inquiry: is_below(Apparent Kc, 400 nM) for c1ccc(C(CNc2nc(-c3ccc4[nH]ccc4c3)nc3ccccc23)c2ccccc2)cc1 [compound 17] ?
Reply text: Not satisfied

Inquiry: is_below(Apparent Kc, 400 nM) for CS(=O)(=O)Nc1ccc(-c2nc(NCC(c3ccccc3)c3ccccc3)c3ccccc3n2)cc1 [SRI-29577] ?
Reply text: Satisfied
